Numbers sourced from patent EP4817631A2.

- Target System: T1, hRGMa-His (human, UniProt Q96B86 48-422, limits assumed)
- T1 construct: not shown: His tag
- T1 sequence: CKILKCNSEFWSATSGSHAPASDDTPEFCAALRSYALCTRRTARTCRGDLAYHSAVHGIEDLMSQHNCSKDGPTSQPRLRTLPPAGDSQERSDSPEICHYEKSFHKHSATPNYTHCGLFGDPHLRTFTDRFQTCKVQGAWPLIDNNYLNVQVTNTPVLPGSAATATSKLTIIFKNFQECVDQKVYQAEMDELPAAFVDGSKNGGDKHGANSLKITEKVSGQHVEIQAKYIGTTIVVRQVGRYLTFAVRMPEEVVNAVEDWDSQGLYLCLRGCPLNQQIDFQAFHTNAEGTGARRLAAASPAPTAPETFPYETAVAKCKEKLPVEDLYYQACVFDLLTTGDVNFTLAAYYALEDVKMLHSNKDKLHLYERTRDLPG
- Assay Name: BIAcore; Ab captured on CM5 chip via anti-hIgG Fc Ab, antigen injected; 1:1 Langmuir fit

Binder	Display Unit	Kd
h5F9.AM4 (antibody, V domains shown, also called RGMA-h5F9AM.4; RGMA-h5F9Vh7a/pJP29 1 hIgG1/K mut) VH: EVQLVESGGGLVQPGGSLRLSCAASGFTFSNYGMNWIRQAPGKGLEWIGMIYYDSSEKHYADSVKGRFTISRDNSKNTLYLQMNSLRAEDTAVYYCAKGTTPDYWGQGTMVTVSS VL: DVVLTQSPLSLPVTLGQPASISCRSSQSLESSDGDTFLEWFQQRPGQSPRLLIYDVSTRFSGVPDRFSGSGSGTDFTLKISRVEAEDVGVYYCFQVTHDPVTFGQGTKLEIK	pM	15
h5F9.AM9 (antibody, V domains shown, also called RGMA-h5F9AM.9; RGMA-h5F9pJP297/pJP 299 hIgG1/K mut) VH: EVQLVESGGGVVQPGRSLRLSCAASGFTFSNYGMNWVRQAPGKGLEWVAMIYYDSSEKHYADSVKGRFTISRDNSKNTLYLQMNSLRAEDTAVYYCARGTTPDYWGQGTMVTVSS VL: DVVLTQSPLSLPVTLGQPASISCRSSQSLADSDGDTFLHWFQQRPGQSPRLLIYAVSHRFSGVPDRFSGSGSGTDFTLKISRVEAEDVGVYYCFQATHDPVTFGQGTKLEIK	pM	470
h5F9.AM8 (antibody, V domains shown, also called RGMA-h5F9AM.8; RGMA-h5F9pJP297/pJP 298 hIgG1/K mut) VH: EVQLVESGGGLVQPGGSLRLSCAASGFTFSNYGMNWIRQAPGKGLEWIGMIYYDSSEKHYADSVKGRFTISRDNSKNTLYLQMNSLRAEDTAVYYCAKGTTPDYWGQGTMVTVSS VL: DVVLTQSPLSLPVTLGQPASISCRSSQSLEESDGYTFLHWFQQRPGQSPRLLIYEVSTRFSGVPDRFSGSGSGTDFTLKISRVEAEDVGVYYCFQATHDPLTFGQGTKLEIK	pM	31
